- target_or_system: Gal-1 (Homo sapiens)
- Construct: made in house; host or cells: E. coli BL21(DE3)
- Sequence (P09382 whole entry): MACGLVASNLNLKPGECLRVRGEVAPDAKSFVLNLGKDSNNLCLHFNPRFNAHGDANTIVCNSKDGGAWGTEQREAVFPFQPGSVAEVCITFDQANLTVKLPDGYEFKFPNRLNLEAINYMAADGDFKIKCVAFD
- test_protocol: Pull-down assay with immobilized protein and LSM libraries
- Format: binding
- assay_context: H12 library; 1:1 binding assumed; read-out: Surface mapping KD (apparent)
Item-by-item account of Kd
Give the value; after it, write the unit.

CSCC[C@@H](CC(=O)N[C@H]1CCC[C@@H]1C(=O)N[C@H]1CCC[C@@H]1C(N)=O)NC(=O)[C@H]1CCC[C@@H]1NC(=O)[C@H]1CCC[C@@H]1NC(=O)C[C@H](Cc1ccc(O)cc1)NC(=O)[C@H]1CCC[C@@H]1NC(=O)[C@H]1CCC[C@@H]1N [H12 YM] : 286 µM

Kindly review the next molecule as well.
Entry CC[C@H](C)[C@@H](CC(=O)N[C@H]1CCC[C@@H]1C(=O)N[C@H]1CCC[C@@H]1C(N)=O)NC(=O)[C@H]1CCC[C@@H]1NC(=O)[C@H]1CCC[C@@H]1NC(=O)C[C@H](Cc1c[nH]c2ccccc12)NC(=O)[C@H]1CCC[C@@H]1NC(=O)[C@H]1CCC[C@@H]1N [H12 WI] — recorded Kd = 174 µM
